Experiment: Intravenous pharmacokinetics in Sprague-Dawley rats
Conditions: male, Sprague-Dawley, rat, plasma, iv, 1 mg/kg
Assay endpoint: MRT last (min)
# unit: min | format: bare number

Challenge: MRT last lookup needed for COc1ccc2c3c1O[C@H]1C(=O)CC[C@@]4(O)[C@@H](C2)N(C)CC[C@]314 [Oxycodone, reference compound] , thanks.
Response given: 37

* * *

Measured MRTlast accompanies every entry in the list below.
Experiment: Intravenous pharmacokinetics in Sprague-Dawley rats
Conditions: hydroxycodone series, IV 1 mg/kg, rats, Mean ± SD
# unit: min | format: bare number

These solved cases illustrate the format of a correct answer.
INSERT INTO measurements (molecule, value_units, endpoint_value) VALUES
  ('COCCOCCOCCOCCOCCO[C@H]1CC[C@@]2(O)[C@H]3Cc4ccc(OC)c5c4[C@@]2(CCN3C)[C@H]1O5 [α-6-mPEG5-O-Hydroxycodone, α-6-mPEG5-O-hydroxycodone]', 'min', 46.2),
  ('COCCOCCO[C@H]1CC[C@@]2(O)[C@H]3Cc4ccc(OC)c5c4[C@@]2(CCN3C)[C@H]1O5 [α-6-mPEG2-O-Hydroxycodone, α-6-mPEG2-O-hydroxycodone]', 'min', 37.0);

Challenge: MRTlast lookup needed for COCCOCCOCCOCCO[C@H]1CC[C@@]2(O)[C@H]3Cc4ccc(OC)c5c4[C@@]2(CCN3C)[C@H]1O5 [α-6-mPEG4-O-Hydroxycodone, α-6-mPEG4-O-hydroxycodone] , thanks.
Response given: 35.6

Challenge: MRTlast lookup needed for COCCOCCOCCOCCOCCOCCO[C@H]1CC[C@@]2(O)[C@H]3Cc4ccc(OC)c5c4[C@@]2(CCN3C)[C@H]1O5 [α-6-mPEG6-O-Hydroxycodone, α-6-mPEG6-O-hydroxycodone] , thanks.
Response given: 47.7

Challenge: MRTlast lookup needed for COCCOCCOCCOCCOCCOCCOCCOCCOCCO[C@H]1CC[C@@]2(O)[C@H]3Cc4ccc(OC)c5c4[C@@]2(CCN3C)[C@H]1O5 [α-6-mPEG9-O-Hydroxycodone, α-6-mPEG9-O-hydroxycodone] , thanks.
Response given: 52.7

Challenge: MRTlast lookup needed for COCCOCCOCCO[C@H]1CC[C@@]2(O)[C@H]3Cc4ccc(OC)c5c4[C@@]2(CCN3C)[C@H]1O5 [α-6-mPEG3-O-Hydroxycodone, α-6-mPEG3-O-hydroxycodone] , thanks.
Response given: 32.5

Challenge: MRTlast lookup needed for COCCOCCOCCOCCOCCOCCOCCO[C@H]1CC[C@@]2(O)[C@H]3Cc4ccc(OC)c5c4[C@@]2(CCN3C)[C@H]1O5 [α-6-mPEG7-O-Hydroxycodone, α-6-mPEG7-O-oxycodone] , thanks.
Response given: 54.3
